For each of the compounds below, state its MIC.
# Test system: P. aeruginosa (ΔmexAB-oprM)
# test.summary: microbe, parasite or virus in culture
# Type: cell-based
# measurement.parameters: Pseudomonas aeruginosa, read-out: MIC P. aeruginosa ΔmexAB-OprM

Lab note: need MIC with P. aeruginosa (ΔmexAB-oprM) for entry O=C(O)c1cccc2c1OB(O)[C@@H](NC(=O)C(NC(=O)N1CCN(CCF)C(=O)C1=O)c1ccc(O)c(O)c1Cl)C2 (stereo partly shown) , please look it up. 2 to 4 µg/mL

Lab note: need MIC with P. aeruginosa (ΔmexAB-oprM) for entry NS(=O)(=O)c1ccc(C(NC(=O)N2CCN(CCF)C(=O)C2=O)C(=O)N[C@H]2Cc3cccc(C(=O)O)c3OB2O)c(F)c1 (stereo partly shown) , please look it up. 8 to 16 µg/mL

Lab note: need MIC with P. aeruginosa (ΔmexAB-oprM) for entry NCCN1CCN(C(=O)N[C@@H](C(=O)N[C@H]2Cc3cccc(C(=O)O)c3OB2O)c2ccc(O)c(O)c2Cl)C(=O)C1=O , please look it up. < 0.25 µg/mL

Lab note: need MIC with P. aeruginosa (ΔmexAB-oprM) for entry NCCCN1CCN(C(=O)N[C@@H](C(=O)N[C@H]2Cc3cccc(C(=O)O)c3OB2O)c2ncc(O)cc2F)C(=O)C1=O , please look it up. 8 to 16 µg/mL

Lab note: need MIC with P. aeruginosa (ΔmexAB-oprM) for entry CS(=O)(=O)N1CCN(C(=O)NC(C(=O)N[C@H]2Cc3cccc(C(=O)O)c3OB2O)c2ccc(O)c(O)c2Cl)C1=O (stereo partly shown) , please look it up. < 0.25 µg/mL

Lab note: need MIC with P. aeruginosa (ΔmexAB-oprM) for entry NCCN1CCN(C(=O)N[C@H](C(=O)N[C@H]2Cc3ccc(F)c(C(=O)O)c3OB2O)c2ncc(O)cc2F)C(=O)C1=O , please look it up. 8 to 16 µg/mL

Lab note: need MIC with P. aeruginosa (ΔmexAB-oprM) for entry C[C@H]1CN(CCN)C(=O)C(=O)N1C(=O)N[C@@H](C(=O)N[C@H]1Cc2ccc(F)c(C(=O)O)c2OB1O)c1ccc(O)c(O)c1Cl , please look it up. < 0.25 µg/mL
